Tested on: T-47D breast
Method summary: NCI tumour cell line growth inhibition, 48 h
Observation type: TGI

>>> measured("C1C2CC3CC1CC(c1nn4c(C56CC7CC(CC(C7)C5)C6)nnc4s1)(C2)C3")
"> 100 µM"
>>> measured("O=C(O)c1cccc(Nc2c(C(=O)O)cccc2[N+](=O)[O-])c1")
"> 100 µM"
>>> measured("CC(=O)O[C@H]1C(=O)[C@@]2(C)[C@H]([C@H](OC(=O)c3ccccc3)[C@]3(O)C[C@H](OC(=O)[C@H](O)[C@@H](NC(=O)c4ccc(N)cc4)c4ccccc4)C(C)=C1C3(C)C)[C@]1(OC(C)=O)CO[C@@H]1C[C@@H]2O")
"> 50 µM"

###

Tested on: NCI-H226 lung
Method summary: NCI tumour cell line growth inhibition, 48 h
TGI overview
Observation type: TGI (µM)

>>> measured("CCOC(=O)c1c(CN2CCN(c3ccccc3)CC2)n(-c2ccccc2)c2cc(Br)c(O)cc12")
30.9
>>> measured("NC(=S)N/N=C/c1ccc(OC(=O)COc2ccc(Cl)cc2)cn1")
48.9
>>> measured("O=C(c1cccc(O)c1O)c1cn(Cc2ccc(F)cc2)c2cccc(O)c12")
43.8

###

Tested on: MDA-MB-231 breast
Method summary: NCI tumour cell line growth inhibition, 48 h
Classification field: MET = TGI at or over 30 µM; NOT MET = TGI under 30 µM.

>>> label("CCN1C(=O)CNc2ncc(-c3ccc(-c4ncn[nH]4)nc3C)nc21")
"NOT MET"
>>> label("COC(=O)C1=CC2C(=O)c3ccccc3C1(c1ccccc1)N2C1CCCCC1 (stereo not drawn)")
"MET"
>>> label("CC(C)C[C@H]1[C@@H](OCc2ccccc2)COS(=O)(=O)N1[C@H](C)c1ccccc1")
"MET"
>>> label("NCCCC[C@@H]1NC(=O)[C@H]2CCCN2C(=O)[C@H](Cc2ccccc2)NC(=O)[C@H](Cc2ccccc2)CNC1=O")
"MET"
>>> label("CC(C)CCCC(C)[C@H]1CC[C@H]2n3c(nnc3-c3ccccc3)CCC[C@]12C (stereo partly drawn)")
"MET"
>>> label("O=C(N/N=C/c1cccc(O)c1O)c1ccccc1")
"MET"
>>> label("CCOC(=O)c1c(CN2CCN(c3ccccc3)CC2)n(-c2ccccc2)c2cc(Br)c(O)cc12")
"MET"
>>> label("OC1=C2c3ccccc3NC2Oc2cc(F)ccc21 (stereo not drawn)")
"MET"
>>> label("COc1cc2c(/C=C3/C(=O)Nc4ccc(O)cc43)c(Cl)n(Cc3ccccc3)c2cc1C")
"MET"
>>> label("CCCCCCCC(CC(=O)NC(CO)C(=O)NC(CO)CC(C)C)OC(=O)CC(CCCCCCC)OC(=O)CC(CCCCCCC)OC1OC(C)C(O)C(OC2OC(C)C(O)C(OC(C)=O)C2O)C1O (stereo not drawn)")
"NOT MET"
>>> label("COc1nn(Cc2ccccn2)c2ccc([N+](=O)[O-])cc12")
"MET"
>>> label("C=CC(C)(C)n1cc(C2=C3OC(=O)C(c4cn(C(C)(C)C=C)c5ccccc45)=C3OC2=O)c2ccccc21")
"MET"
>>> label("NCc1ccc(-c2ccc(CN)s2)s1")
"MET"
>>> label("O=C(Nc1ccc(Cl)cc1)c1cc(S(=O)(=O)Nc2n[nH]c(Nc3ccc4ccccc4c3)n2)c(SSc2cc(Cl)c(C(=O)Nc3ccc(Cl)cc3)cc2S(=O)(=O)Nc2n[nH]c(Nc3ccc4ccccc4c3)n2)cc1Cl")
"MET"
>>> label("O=C(CC(O)(C(F)(F)F)C(F)(F)F)C(c1ccccc1)C(O)(C(F)(F)F)C(F)(F)F (stereo not drawn)")
"MET"
>>> label("O=C1c2c(Br)sc(Br)c2C(NC(=O)C(F)(F)F)C1O (stereo not drawn)")
"MET"
>>> label("CCC(C)C(=O)OC1C(=O)OC2CC3C(C)=CC(=O)C(O)C3(C)C3C4(O)OCC23C1C(C)C4O (stereo not drawn)")
"NOT MET"
>>> label("CCOC(=O)c1cc(/C(=N\\O)c2cc(OC)c(OC)c(OC)c2)n2cc(C)cc(C)c12")
"NOT MET"
>>> label("C[C@]12CC[C@H]3[C@@H](CCC4=CC(=O)CC[C@@H]43)[C@@H]1CC[C@]2(O)C(N)=O")
"MET"
>>> label("CC(C)c1ccc(C(=O)Nc2sc3c(c2C(N)=O)CCC(=O)C3)cc1")
"NOT MET"
>>> label("C[N+](C)(C)CC1CCCC(C[N+](C)(C)C)C1=O (stereo not drawn)")
"NOT MET"
>>> label("CN(C)CCn1c(=O)c2ccc(NCCNCCO)c3c(=O)c4ccccc4n(c1=O)c23")
"NOT MET"
>>> label("C[N+]12CCCCC1C(COc1cccc3cccnc13)CCC2 (stereo not drawn)")
"MET"
>>> label("CCCCN=C(N)c1ccc(OCCSCCOc2ccc(C(N)=NCCCC)cc2)cc1")
"MET"
>>> label("COC(=O)C1C2OC(C)(C)OC2CN1S(=O)(=O)c1ccc(C)cc1 (stereo not drawn)")
"MET"
>>> label("Cc1ccc2c(c1)C(=O)C1(C2)Cc2c(C)cccc2C1=O (stereo not drawn)")
"MET"
>>> label("CC(=O)NC1C(OCc2ccccc2)OC(CO)C(O)C1OC(C)C(=O)NC(C(=O)NC(CCC(=O)NCCCC(=O)Nc1ccc2c(c1)CN1C(=O)c3ccccc3C1=N2)C(N)=O)C(C)C (stereo not drawn)")
"MET"
>>> label("Cc1nc2ccccc2c(=O)n1NC(=O)c1ccccn1")
"MET"
>>> label("Cc1c2c(cc3c1C(=O)C(=O)C([C@@H](C)CO)=C3O)C(C)(C)CCC2")
"MET"
>>> label("O=C1c2ccccc2-c2c1c1ccccc1c(=O)n2Cc1ccccc1")
"MET"
>>> label("Cc1sc2nc(N(C)C)oc(=O)c2c1C")
"MET"
>>> label("CC1=NN(c2cccc(S(=O)(=O)O)c2)C2(C1)C(Cl)C(=O)N2c1nc2ccccc2s1 (stereo not drawn)")
"NOT MET"
>>> label("Clc1nc(Cl)c2ncn(Cc3cccc(COc4cccc(OCc5cccc(Cn6cnc7c(Cl)nc(Cl)nc76)c5)c4)c3)c2n1")
"MET"
>>> label("CC(C)OC(=O)c1ccc(NCC2=CC(=O)C=CC2=O)cc1")
"NOT MET"
>>> label("CC(NC(=O)OCc1ccccc1)NC(=O)OC(C)(C)C (stereo not drawn)")
"MET"
>>> label("CC(C)(C)c1cc(S(=O)(=O)O)c2oc(-c3ccccc3)cc(=O)c2c1")
"MET"
>>> label("COc1cccc(Nc2nc(C)c([N+](=O)[O-])c(Nc3cccc(OC)c3)n2)c1")
"MET"

###

System: OVCAR-4 ovarian
Method summary: NCI tumour cell line growth inhibition, 48 h
TGI overview
Observation type: TGI

>>> measured("CC(C)=CCc1c(O)cc(O)c2c1OC(c1ccc(O)cc1)C(O)C2=O (stereo not drawn)")
"> 100 µM"
>>> measured("CCN(CCCl)c1cc(CN(C)C)cc(NC(=O)c2ccc(C(=O)Nc3cc(CN(C)C)cc(N(CC)CCCl)c3)cc2)c1")
"9.46 µM"
>>> measured("COc1ccc(C(=O)c2cc(C)c(OC)c(C)c2)c(OC)c1N(C(=O)C(Cl)Cl)C(=O)C(Cl)Cl")
"> 100 µM"
>>> measured("Cc1sc2nc(N(C)C)oc(=O)c2c1C")
"> 100 µM"
>>> measured("Fc1cc(F)c(COc2cc(Cn3cnc4c(Cl)nc(Cl)nc43)ccc2C23CC4CC(CC(C4)C2)C3)cc1F")
"44 µM"
>>> measured("CCOC(=O)CC[C@H](N)C(=O)N[C@@H](Cc1ccc(N(CCCl)CCCl)cc1)C(=O)OCC")
"1.41 µM"
>>> measured("CC(C)N(C(=O)C12CC3CC(CC(C3)C1)C2)C(C)C")
"> 50 µM"
>>> measured("COc1ccccc1C[C@@H]1OC2(C=CC(=O)CC2SC(=O)c2ccccc2)O[C@H]1Cc1ccccc1OC (stereo partly drawn)")
"3.69 µM"
>>> measured("NC(N)=NCCCn1c2c(c3ccccc3c1=O)C(=O)c1ccccc1-2")
"> 100 µM"
>>> measured("CC(=O)[CH-]C(=O)c1ccccc1.CC(=O)[CH-]C(=O)c1ccccc1.O=C([O-])c1ccc([O-])cc1.O=C([O-])c1ccc([O-])cc1.[Ti+4]")
"> 100 µM"
>>> measured("COc1ccc2c(c1)CCC1C3(CCCC21C)OCCO3 (stereo not drawn)")
"> 100 µM"
>>> measured("CC1=NN(c2ccccc2)C2(C1)C(Cl)C(=O)N2c1nc2ccccc2s1 (stereo not drawn)")
"> 100 µM"
>>> measured("Cc1cccc2nc(-c3ccccc3)cc(=O)n12")
"> 100 µM"
>>> measured("CC12CCCC(C(=O)O)(C1)[C@H](C(C)(C)C(=O)O)CC2 (stereo partly drawn)")
"> 100 µM"
>>> measured("Nc1ncc(-c2cnn(CCO)c2)c2scc(-c3ccc(NC(=O)Nc4cccc(F)c4)cc3)c12")
"11.4 µM"
>>> measured("O=C1NC(=O)c2ccc([N+](=O)[O-])c3cccc1c23")
"35.5 µM"
>>> measured("CN(CCC(=O)N1CC(CCl)c2ccc([N+](=O)[O-])cc21)CCC(=O)N1CC(CCl)c2ccc([N+](=O)[O-])cc21 (stereo not drawn)")
"> 100 µM"
>>> measured("CC(=O)C(C(=O)c1ccc(C)cc1)[C@@H]1OC(C)(C)O[C@@H]1[C@H]1COC(C)(C)O1 (stereo partly drawn)")
"> 26.3 µM"
>>> measured("Cc1ccc(N(C(=O)CC(=O)NN)C(=O)c2ccccc2Cl)cc1")
"> 100 µM"
>>> measured("NC(=S)N/N=C/c1ccc(OC(=O)COc2ccc(Cl)cc2)cn1")
"> 100 µM"
>>> measured("NC1C/C(=N\\O)c2c(Cl)sc(Cl)c21 (stereo not drawn)")
"38.4 µM"
>>> measured("CC[C@@]1(O)C(=O)OCc2c1cc1n(c2=O)Cc2c-1nc1ccccc1c2/C=N\\NC(=O)C[n+]1ccccc1")
"> 100 µM"
>>> measured("COC(=O)C1=CC2C(=O)c3ccccc3C1(c1ccccc1)N2C1CCCCC1 (stereo not drawn)")
"91.6 µM"
